system: MDA-MB-231 (breast cancer); assay: Antiproliferative activity (CCK-8 cell viability), MDA-MB-231; assay type: cell-based; settings: Homo sapiens, Compound concentration: 10 μM, 72 h, read-out: Antiproliferative activity in cancerous cells, MDA-MB-231 (inhibition of cell growth)
Listed here: items and their measured inhibition at 10 µM.
test_readout: inhibition at 10 µM

molecule="CC1=C(CC(=O)O)c2cc(F)ccc2/C1=C\\c1ccc(CCOc2ccc(F)cc2)cc1 [B33]" test_readout="inhibition at 10 µM" data_value="30 to 50%"
molecule="CC1=C(CC(=O)O)c2cc(F)ccc2/C1=C\\c1cccc(C(=O)c2ccccc2)c1 [C304]" test_readout="inhibition at 10 µM" data_value="30 to 50%"
molecule="CC1=C(CC(=O)O)c2cc(F)ccc2/C1=C/c1cccc(COc2ccc(F)c(F)c2)c1 [E9]" test_readout="inhibition at 10 µM" data_value="≥ 50%"
molecule="COc1ccc(COCc2ccc(/C=C3/C(C)=C(CC(=O)O)c4cc(F)ccc43)cc2)cc1Cl [B108]" test_readout="inhibition at 10 µM" data_value="≥ 50%"
molecule="CC1=C(CC(=O)O)c2cc(F)ccc2/C1=C\\c1ccc(Oc2ccc(F)c(Cl)c2)cc1 [C54]" test_readout="inhibition at 10 µM" data_value="≥ 50%"
molecule="CC1=C(CC(=O)O)c2cc(F)ccc2/C1=C\\c1ccc(COc2ccc(F)cc2)cc1Br [B74]" test_readout="inhibition at 10 µM" data_value="30 to 50%"
molecule="CCc1ccc(Oc2ccc(/C=C3/C(C)=C(CC(=O)O)c4cc(Cl)ccc43)cc2)cc1 [C85]" test_readout="inhibition at 10 µM" data_value="≥ 50%"
molecule="CC1=C(CC(=O)O)c2ccc(F)cc2/C1=C\\c1ccc(COc2ccccc2)cc1 [B1]" test_readout="inhibition at 10 µM" data_value="≥ 50%"
molecule="CC1=C(CC(=O)O)c2cc(F)ccc2/C1=C\\c1ccc(COCc2ccc(C(C)C)cc2)cc1 [B150]" test_readout="inhibition at 10 µM" data_value="≥ 50%"
molecule="COc1cc(COCc2ccc(/C=C3/C(C)=C(CC(=O)O)c4cc(F)ccc43)cc2)ccc1F [B113]" test_readout="inhibition at 10 µM" data_value="≥ 50%"
molecule="CC1=C(CC(=O)O)c2cc(F)ccc2/C1=C\\c1ccc(Oc2ccc(Cl)cc2)cc1 [C60]" test_readout="inhibition at 10 µM" data_value="< 30%"
molecule="CCc1ccc2c(c1)C(CC(=O)O)=C(C)/C2=C/c1ccc(COc2ccccc2)cc1 [B5]" test_readout="inhibition at 10 µM" data_value="≥ 50%"
molecule="CC1=C(CC(=O)O)c2c(F)cccc2/C1=C\\c1cccc(COc2ccccc2)c1 [B13]" test_readout="inhibition at 10 µM" data_value="≥ 50%"

---

test system: HepG2 (liver cancer); experiment: Antiproliferative activity (CCK-8 cell viability), HepG2; format: cell-based; conditions: Homo sapiens, Compound concentration: 30 μM, 72 h, read-out: Antiproliferative activity in cancerous cells, HepG2
test_readout: inhibition at 30 µM

smiles_text=CC1=C(CC(=O)O)c2c(F)cccc2/C1=C\c1cccc(COc2ccccc2)c1 data_value="30 to 50%"
smiles_text=COc1ccc2c(c1)C(CC(=O)O)=C(C)/C2=C/c1cccc(COc2ccc(F)cc2)c1 data_value="30 to 50%"
smiles_text=CC1=C(CCOC(=O)n2ccnc2)c2cc(F)ccc2/C1=C\c1ccc(Oc2ccc(F)cc2)cc1 data_value="< 30%"
smiles_text=CCc1ccc2c(c1)/C(=C\c1ccc(COc3ccccc3)cc1)C(C)=C2CC(=O)O data_value="< 30%"
smiles_text=CC1=C(CC(=O)O)c2cc(Br)ccc2/C1=C\c1ccc(Oc2ccc(F)cc2)cc1 data_value="< 30%"
smiles_text=CC1=C(CC(=O)O)c2cc(F)ccc2/C1=C\c1ccc(Sc2nc3ccccc3[nH]2)cc1 data_value="< 30%"
smiles_text=CC1=C(CC(=O)O)c2cc(C)ccc2/C1=C\c1ccc(COc2ccccc2)cc1 data_value="< 30%"
smiles_text=CC1=C(CC(=O)O)c2c(F)cccc2/C1=C\c1ccc(Oc2ccc(F)cc2)cc1 data_value="30 to 50%"
smiles_text=COc1ccc2c(c1)C(CC(=O)O)=C(C)/C2=C/c1ccc(COc2ccc(F)cc2)cc1 data_value="30 to 50%"
smiles_text=O=C(O)CC1=C/C(=C/c2cccc(Oc3ccccc3)c2)c2cc(OCC(F)(F)F)ccc21 data_value="30 to 50%"
smiles_text=COc1ccc2c(c1)/C(=C\c1ccc(OCc3ccccc3)cc1)C=C2CC(=O)O data_value="30 to 50%"
smiles_text=CC1=C(CC(=O)NCCN2CCOCC2)c2cc(F)ccc2/C1=C\c1ccc(Oc2ccc(F)cc2)cc1 data_value="< 30%"
